// data source = patent US20250281611A1

Target: T1, CD33 (UniProt P20138 18-364, limits assumed)
T1 construct: whole, on cells; also called Siglec-3; CD33 on MOLM-13 cells
T1 sequence (P20138 18-364 limits assumed): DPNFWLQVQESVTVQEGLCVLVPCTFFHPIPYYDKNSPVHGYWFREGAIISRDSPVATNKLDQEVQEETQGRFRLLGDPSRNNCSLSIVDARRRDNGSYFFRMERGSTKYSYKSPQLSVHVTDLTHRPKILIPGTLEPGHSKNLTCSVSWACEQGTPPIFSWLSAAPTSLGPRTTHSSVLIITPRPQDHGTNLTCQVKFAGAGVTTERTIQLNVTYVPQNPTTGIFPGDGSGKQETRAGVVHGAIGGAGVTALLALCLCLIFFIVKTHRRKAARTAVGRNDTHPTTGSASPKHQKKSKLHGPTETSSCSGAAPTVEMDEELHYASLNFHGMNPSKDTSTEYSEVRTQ
Experiment: flow cytometry, MOLM-13 cells, anti-His-FITC detection, ratio to no bridge
PARAMETER: MFIR HisTag FITC
Form: value (number only, do not type unit).

Examples with answers:
BINDER: CD33 BRIDGE variant B26 (Fab, V domains shown, Lintuzumab-based Fab bridging molecule) VH: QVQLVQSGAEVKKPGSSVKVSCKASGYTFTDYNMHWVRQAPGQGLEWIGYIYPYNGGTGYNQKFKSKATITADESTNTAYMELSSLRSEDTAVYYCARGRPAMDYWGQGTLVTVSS VL: DIQMTQSPSSLSASVGDRVTITCRASESVDNYGISFMNWFQQKPGKAPKLLIYAASNQGSGVPSRFSGSGSGTDFTLTISSLQPDDFATYYCQQSKEVPWTFGQGTKVEIKR
MFIR HisTag FITC: 8.58
--
BINDER: CD33 BRIDGE variant B8 (Fab, V domains shown, Lintuzumab-based Fab bridging molecule) VH: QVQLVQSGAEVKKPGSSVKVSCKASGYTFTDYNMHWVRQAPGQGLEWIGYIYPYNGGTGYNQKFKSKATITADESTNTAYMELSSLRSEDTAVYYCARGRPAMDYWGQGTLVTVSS VL: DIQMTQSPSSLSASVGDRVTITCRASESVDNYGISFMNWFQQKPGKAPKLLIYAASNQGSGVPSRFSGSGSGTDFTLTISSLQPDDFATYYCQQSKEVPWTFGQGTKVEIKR
MFIR HisTag FITC: 9.75
--
BINDER: CD33 PURIFIED BRIDGE (Fab, V domains shown, also called old variant; original E200 CD33 Fab bridging molecule derived from lintuzumab) VH: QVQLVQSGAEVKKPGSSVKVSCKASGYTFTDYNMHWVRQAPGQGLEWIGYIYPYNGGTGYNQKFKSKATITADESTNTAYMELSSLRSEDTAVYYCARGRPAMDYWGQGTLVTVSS VL: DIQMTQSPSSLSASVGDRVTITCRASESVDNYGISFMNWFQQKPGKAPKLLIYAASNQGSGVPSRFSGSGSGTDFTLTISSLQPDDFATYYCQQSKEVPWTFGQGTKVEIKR
MFIR HisTag FITC: 10.6
--
BINDER: CD33 BRIDGE variant B19 (Fab, V domains shown, Lintuzumab-based Fab bridging molecule) VH: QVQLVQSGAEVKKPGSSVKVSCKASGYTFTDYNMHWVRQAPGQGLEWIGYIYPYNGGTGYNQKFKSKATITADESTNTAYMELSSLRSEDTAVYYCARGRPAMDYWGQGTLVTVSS VL: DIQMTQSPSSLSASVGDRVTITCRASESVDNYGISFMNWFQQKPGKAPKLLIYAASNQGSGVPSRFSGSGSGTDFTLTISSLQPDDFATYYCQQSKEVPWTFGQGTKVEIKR
MFIR HisTag FITC: 7.99
--
BINDER: CD33 BRIDGE variant B25 (Fab, V domains shown, Lintuzumab-based Fab bridging molecule) VH: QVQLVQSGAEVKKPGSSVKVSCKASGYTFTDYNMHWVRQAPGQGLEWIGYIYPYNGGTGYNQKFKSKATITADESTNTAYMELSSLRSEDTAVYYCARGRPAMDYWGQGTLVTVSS VL: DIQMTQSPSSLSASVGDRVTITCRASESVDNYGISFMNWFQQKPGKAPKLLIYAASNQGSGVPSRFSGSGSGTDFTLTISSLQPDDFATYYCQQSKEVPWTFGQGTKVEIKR
MFIR HisTag FITC: 10.9

Check the records and state MFIR HisTag FITC for CD33 BRIDGE variant B13 (Fab, V domains shown, Lintuzumab-based Fab bridging molecule) VH: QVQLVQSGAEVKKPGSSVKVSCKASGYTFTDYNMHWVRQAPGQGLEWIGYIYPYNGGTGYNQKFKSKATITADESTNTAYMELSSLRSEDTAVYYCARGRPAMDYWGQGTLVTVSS VL: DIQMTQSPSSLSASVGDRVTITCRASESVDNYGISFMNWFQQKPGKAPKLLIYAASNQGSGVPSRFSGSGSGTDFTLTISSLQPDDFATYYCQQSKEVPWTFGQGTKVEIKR 10.1

Hello, please tell me recorded MFIR HisTag FITC for this one: CD33 BRIDGE variant B1 (Fab, V domains shown, Lintuzumab-based Fab bridging molecule) VH: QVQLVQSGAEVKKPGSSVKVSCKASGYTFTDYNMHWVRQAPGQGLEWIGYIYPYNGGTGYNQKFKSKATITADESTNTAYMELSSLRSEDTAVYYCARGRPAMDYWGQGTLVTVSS VL: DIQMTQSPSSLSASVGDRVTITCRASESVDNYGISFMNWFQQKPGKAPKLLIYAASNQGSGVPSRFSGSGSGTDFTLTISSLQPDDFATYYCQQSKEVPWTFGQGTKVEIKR 9.12

Provide MFIR HisTag FITC value for the following binder: CD33 BRIDGE variant B20 (Fab, V domains shown, Lintuzumab-based Fab bridging molecule) VH: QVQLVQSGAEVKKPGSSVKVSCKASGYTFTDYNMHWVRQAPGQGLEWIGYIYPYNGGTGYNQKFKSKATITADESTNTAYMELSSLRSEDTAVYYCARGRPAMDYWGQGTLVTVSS VL: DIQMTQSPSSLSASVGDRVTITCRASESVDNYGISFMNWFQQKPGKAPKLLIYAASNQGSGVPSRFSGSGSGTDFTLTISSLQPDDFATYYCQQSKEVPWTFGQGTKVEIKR 8.46

Please supply the value of reported MFIR HisTag FITC for the item CD33 BRIDGE variant B7 (Fab, V domains shown, Lintuzumab-based Fab bridging molecule) VH: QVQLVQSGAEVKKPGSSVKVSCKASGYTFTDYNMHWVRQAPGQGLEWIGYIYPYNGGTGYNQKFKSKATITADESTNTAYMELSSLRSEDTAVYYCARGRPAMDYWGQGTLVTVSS VL: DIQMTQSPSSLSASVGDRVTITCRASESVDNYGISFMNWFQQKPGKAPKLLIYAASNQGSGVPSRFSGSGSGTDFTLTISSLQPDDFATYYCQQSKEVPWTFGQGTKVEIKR 8.24

Give the reported value of MFIR HisTag FITC for this record: CD33 BRIDGE variant B2 (Fab, V domains shown, Lintuzumab-based Fab bridging molecule) VH: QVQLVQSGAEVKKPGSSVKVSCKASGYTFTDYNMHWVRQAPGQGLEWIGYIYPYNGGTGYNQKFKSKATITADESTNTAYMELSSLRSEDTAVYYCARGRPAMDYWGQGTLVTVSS VL: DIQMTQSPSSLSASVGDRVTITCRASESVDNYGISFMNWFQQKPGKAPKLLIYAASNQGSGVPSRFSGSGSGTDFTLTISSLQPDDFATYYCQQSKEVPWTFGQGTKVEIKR 8.34
